molecular target: Lon protease (Escherichia coli (strain K12)); test: inhibitors of E. coli Lon protease, primary screen, biochemical, fluorescence polarization (AID 602123); settings: purified E. coli Lon protease, at 7.94 µM
Among all 360,000 compounds or so, about 1,500 (0.42%) were called active. Cut-off read from the data, not from the text of the source: active = inhibition above about 13% (passing the limit was not always enough); inactive = the rest. The entries come from a sample that favours actives as a whole.
Use one of these outcomes when replying: TRUE = active, FALSE = inactive

Examples from the recorded data:
1. NC(=O)c1ccc(NC(=O)COC(=O)c2c3c(nc4ccccc24)/C(=C\c2ccc4c(c2)OCO4)CCC3)cc1: TRUE
2. c1ccc(CSc2nnc(-c3ccco3)c(-c3ccco3)n2)cc1: TRUE
3. CCCC(O)(CCC)C(=O)NN(C(=O)CCl)c1cccc(C)c1: TRUE

Inquiry: Hello, I am checking results. What call was entered for Cc1ccc2c(c1)nnc1nnc(SCC(=O)O)n12 ?
Reply text: TRUE

Inquiry: Record: CC(NC(=S)Nc1ccc(S(N)(=O)=O)cc1)c1ccc2c(c1)OCO2 (centres undefined)
Reply text: FALSE

Inquiry: Record: O=C(CN1CCCSc2ccccc21)N1CCN(S(=O)(=O)c2ccccc2)CC1
Reply text: FALSE
